# TEST SYSTEM: Dual specificity protein kinase CLK4 (Homo sapiens)
# TEST DESCRIPTION: Inhibition of human CLK4 (146 to 480 residues) expressed in Escherichia coli BL21 (DE3) Turner using MBP as substrate incubated for 60 mins in presence of [gamma-32P]ATP by radiometric kinase assay
pIC50: −log10 of the molar value.
READOUT NAME: pIC50

# CHEMICAL STRUCTURE, TEST SYSTEM, VALUE REPORTED
measured = [
    ("O=C(O)c1ccc2c(c1)nc(Nc1cccc(Cl)c1)c1ccncc12", "Dual specificity protein kinase CLK4 (Homo sapiens)", 7.96),
]

====

# TEST SYSTEM: Dual specificity protein kinase CLK4 (Homo sapiens, UniProt Q9HAZ1)
# Sequence (Q9HAZ1 whole entry, the tested form may be a part): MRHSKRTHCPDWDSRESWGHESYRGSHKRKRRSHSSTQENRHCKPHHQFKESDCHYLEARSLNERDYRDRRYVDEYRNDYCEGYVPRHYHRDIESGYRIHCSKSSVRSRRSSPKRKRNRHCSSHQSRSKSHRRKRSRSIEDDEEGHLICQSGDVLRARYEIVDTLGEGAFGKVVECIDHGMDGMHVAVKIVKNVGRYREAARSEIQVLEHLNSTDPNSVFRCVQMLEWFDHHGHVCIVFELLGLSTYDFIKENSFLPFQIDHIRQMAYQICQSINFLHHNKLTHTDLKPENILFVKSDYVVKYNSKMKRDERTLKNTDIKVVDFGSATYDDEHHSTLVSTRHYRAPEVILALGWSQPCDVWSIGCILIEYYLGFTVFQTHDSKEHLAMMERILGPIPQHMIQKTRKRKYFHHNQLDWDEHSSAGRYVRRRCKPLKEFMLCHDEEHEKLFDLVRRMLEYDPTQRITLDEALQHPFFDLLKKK
# TEST DESCRIPTION: Inhibition of CLK4 (unknown origin) assessed as reduction in SRSF1 phosphorylation

# CHEMICAL STRUCTURE, TEST SYSTEM, IC50 [µM]
rows = [
    ("O=C(Nc1ccc2[nH]cnc2c1)c1csc(Nc2ccccc2)n1", "Dual specificity protein kinase CLK4 (Homo sapiens, UniProt Q9HAZ1)", 0.024),
]

====

# TEST SYSTEM: Dual specificity protein kinase CLK1 (Homo sapiens)
# Sequence (P49759 whole entry): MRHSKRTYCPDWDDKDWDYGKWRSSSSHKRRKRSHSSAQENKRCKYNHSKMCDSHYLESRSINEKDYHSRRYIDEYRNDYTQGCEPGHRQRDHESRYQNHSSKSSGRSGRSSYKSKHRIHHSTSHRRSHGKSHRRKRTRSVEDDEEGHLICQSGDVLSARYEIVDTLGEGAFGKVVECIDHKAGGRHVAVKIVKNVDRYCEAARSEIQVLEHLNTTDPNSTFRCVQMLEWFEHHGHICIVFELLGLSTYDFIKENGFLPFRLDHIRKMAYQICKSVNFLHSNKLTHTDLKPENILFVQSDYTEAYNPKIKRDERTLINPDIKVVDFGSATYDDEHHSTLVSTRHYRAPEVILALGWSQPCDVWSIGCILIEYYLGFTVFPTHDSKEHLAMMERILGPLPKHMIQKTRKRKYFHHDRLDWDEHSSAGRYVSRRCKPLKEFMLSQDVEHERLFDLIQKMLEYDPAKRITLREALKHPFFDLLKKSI
# TEST DESCRIPTION: Inhibition of CLK1 (unknown origin)

# CHEMICAL STRUCTURE, IC50 / nM
records = [
    ("O=C(Nc1ccc2[nH]cnc2c1)c1csc(Nc2ccccc2)n1", 44),
]

====

# TEST SYSTEM: Dual specificity protein kinase CLK4 (Homo sapiens, UniProt Q9HAZ1)
# TEST DESCRIPTION: Inhibition of CLK4 (unknown origin) assessed as reduction in SRSF10 phosphorylation
pIC50: −log10 of the molar value.
READOUT NAME: pIC50

# CHEMICAL STRUCTURE, VALUE REPORTED
measured = [
    ("O=C(Nc1ccc2[nH]cnc2c1)c1csc(Nc2ccccc2)n1", 7.85),
]
